TARGET OR TEST SYSTEM: dopamine transporter (DAT) (Rattus norvegicus (Rat), UniProt P23977)
Sequence (P23977 whole entry): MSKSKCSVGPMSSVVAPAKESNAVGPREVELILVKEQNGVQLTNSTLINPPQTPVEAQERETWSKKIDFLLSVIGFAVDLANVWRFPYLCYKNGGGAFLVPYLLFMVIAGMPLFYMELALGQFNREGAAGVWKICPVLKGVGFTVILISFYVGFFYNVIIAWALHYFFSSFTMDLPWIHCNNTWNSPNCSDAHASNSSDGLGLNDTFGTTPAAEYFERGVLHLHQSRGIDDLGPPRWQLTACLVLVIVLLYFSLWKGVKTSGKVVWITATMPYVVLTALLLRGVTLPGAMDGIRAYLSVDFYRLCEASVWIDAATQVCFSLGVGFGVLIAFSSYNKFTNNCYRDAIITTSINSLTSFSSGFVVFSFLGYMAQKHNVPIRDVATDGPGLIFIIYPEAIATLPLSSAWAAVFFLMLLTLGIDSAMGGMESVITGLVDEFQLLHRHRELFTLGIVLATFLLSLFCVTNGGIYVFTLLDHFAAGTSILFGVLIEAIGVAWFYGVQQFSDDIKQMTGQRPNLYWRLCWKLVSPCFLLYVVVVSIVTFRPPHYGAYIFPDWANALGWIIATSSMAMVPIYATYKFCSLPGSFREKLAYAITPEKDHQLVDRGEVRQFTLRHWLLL
MEASUREMENT DESCRIPTION: Dopamine transporter-mediated [3H]MPP+ release (d-amphetamine-induced, shift experiments) in rat caudate synaptosomes
Assay type: biochemical
CONDITION: [3H]MPP+ release; [Blocker]/((EC50-2/EC50-1) − 1)
READOUT TYPE: Apparent Kc (nM)
The figure you give is taken to be in nM; do not add the unit.

Below, each entry is followed by its recorded Apparent Kc result.
CN(C)c1ncc(-c2nc(NCC(c3ccccc3)c3ccccc3)c3ccccc3n2)cn1 | 1820
c1ccc(C(CCNc2nc(-c3ccc4[nH]ccc4c3)nc3ccccc23)c2ccccc2)cc1 | 886

Q: Form entry - test system: dopamine transporter (DAT) (Rattus norvegicus (Rat), UniProt P23977); read-out: Apparent Kc; molecule: Cc1cc2nccn2cc1-c1nc(NCC(c2ccccc2)c2ccccc2)c2ccccc2n1
A: 267

====

TARGET OR TEST SYSTEM: dopamine transporter (DAT) (Rattus norvegicus (Rat), UniProt P23977)
MEASUREMENT DESCRIPTION: [3H]dopamine (DA) uptake inhibition in rat brain (caudate) synaptosomes
Format: biochemical
CONDITION: mean ± S.D.; n = 3; read-out: DAT Uptake Emax
The entries below are paired with their reported Emax.
Entry format: amount then unit.

Cc1cc2nccn2cc1-c1nc(NCC(O)(c2ccccc2)c2ccccc2)c2ccccc2n1 [SRI-31143] | 69%
CS(=O)(=O)Nc1ccc(-c2nc(NCC(O)(c3ccccc3)c3ccccc3)c3ccccc3n2)cc1 [Compound 4] | 70%

Q: Fill in the blank: the reported Emax of CN(C)c1ccc(-c2nc(NCC(c3ccccc3)c3ccccc3)c3ccccc3n2)cn1 [SRI-29779] is ____.
A: 63%

Q: Then c1ccc(C(CNc2nc(-c3ccc4[nH]ccc4c3)nc3ccccc23)c2ccccc2)cc1 [SRI-29155] ?
A: 74%

Q: Then CN(C)c1ncc(-c2nc(NCCC(c3ccccc3)c3ccccc3)c3ccccc3n2)cn1 [SRI-29212] ?
A: 67%

Q: Then CN(C)c1ncc(-c2nc(NCC(c3ccccc3)c3ccccc3)c3ccccc3n2)cn1 [SRI-29153] ?
A: 73%

Q: Then c1ccc(C(CCNc2nc(-c3cccnc3)nc3ccccc23)c2ccccc2)cc1 [SRI-29070] ?
A: 66%

Q: Then c1ccc(C(CNc2nc(-c3ccc4nccn4c3)nc3ccccc23)c2cccnc2)cc1 (stereo not drawn) [SRI-30946] ?
A: 70%

Q: Then c1ccc(C(CNc2nc(-c3ccc4nccn4c3)nc3ccccc23)C2CCCCC2)cc1 (stereo not drawn) [SRI-30513] ?
A: 72%

Q: Then CSc1ncc(-c2nc(NCC(c3ccccc3)c3ccccc3)c3ccccc3n2)cn1 [SRI-29338] ?
A: 71%

Q: Then Cc1cc2nccn2cc1-c1nc(NCC(c2ccccc2)c2ccc[nH]2)c2ccccc2n1 (stereo not drawn) [SRI-31040] ?
A: 69%

Q: Then c1ccc(C(CNc2nc(-c3cnc4nccn4c3)nc3ccccc23)c2ccncc2)cc1 (stereo not drawn) [SRI-30810] ?
A: 64%

====

TARGET OR TEST SYSTEM: UniProt P23977
MEASUREMENT DESCRIPTION: Inhibition of [3H]WIN35428 binding to rat caudate DAT
CONDITION: [3H]WIN35428; mean ± S.D.; n = 3
Method: All of the test compounds were synthesized as described herein. […] The data from three experiments were pooled and fit to a dose-response curve equation (using KaleidaGraph; Synergy Software, Reading, Pa.) to yield an Emax and IC50 value. […] Selected compounds were also tested for their ability to inhibit [^3H]WIN35428 binding to rat caudate DAT.
READOUT TYPE: Emax (%)
The figure you give is taken to be in %; do not add the unit.

Below, each entry is followed by its recorded Emax result.
CN(C)c1ncc(-c2nc(NCC(O)(c3ccccc3)c3ccccc3)c3ccccc3n2)cn1 [SRI-29982] | 47
CN(C)c1ccc(-c2nc(NCC(c3ccccc3)c3ccccc3)c3ccccc3n2)cc1 [Compound 51] | 100
c1ccc(C(CNc2nc(-c3ccc4nccn4c3)nc3ccccc23)c2cccnc2)cc1 (stereo not shown) [SRI-30946] | 44
Cc1cc2nccn2cc1-c1nc(NCC(c2ccccc2)c2ccncc2)c2ccccc2n1 (stereo not shown) [SRI-31142] | 92
Cc1cc(NS(C)(=O)=O)ccc1-c1nc(NCC(c2ccccc2)c2ccncc2)c2ccccc2n1 (stereo not shown) [Compound 29] | 72

Q: Fill in the blank: the reported Emax of c1ccc(C(CNc2nc(-c3cnc4nccn4c3)nc3ccccc23)c2ccccn2)cc1 (stereo not shown) [SRI-30507] is ____.
A: 62

Q: Then Cc1cc2nccn2cc1-c1nc(NCC(O)(c2ccccc2)c2ccccc2)c2ccccc2n1 [SRI-31143] ?
A: 52

Q: Then CS(=O)(=O)Nc1ccc(-c2nc(NCC(O)(c3ccccc3)c3ccccc3)c3ccccc3n2)cc1 [Compound 4] ?
A: 47

Q: Then c1ccc(C(CNc2nc(-c3cnc4nccn4c3)nc3ccccc23)C2CCCCC2)cc1 (stereo not shown) [SRI-30517] ?
A: 43

Q: Then Cn1cc2cc(-c3nc(NCC(c4ccccc4)c4ccccc4)c4ccccc4n3)ccc2n1 [SRI-29776] ?
A: 58
